system: U251 CNS; assay: NCI-60 one-dose screen, 48 h (100 = growth as untreated, 0 = no growth, -100 = all killed); conditions: 10 µM unless noted
This is part of a sample that, as a whole, favours compounds with a hit. Of some 83,000 tested, about 20% had one in any assay.
Rule for this label: Criterion met means growth is less than 40%; Criterion not met means growth is at least 40%.

{"MOLECULE": "CC1=C(C)C(=O)C(Nc2cccc(C(F)(F)F)c2)=C(Cl)C1=O", "CLASS_NAME": "Criterion not met"}
{"MOLECULE": "CN(C)c1ccc(-c2c(NC(C)(C)C)nc3c(OCCc4ccccc4)cccn23)cc1", "CLASS_NAME": "Criterion met"}
{"MOLECULE": "N#Cc1nc(-c2ccccc2)oc1S(=O)(=O)N1CCN(CCc2ccccn2)CC1", "CLASS_NAME": "Criterion not met"}
{"MOLECULE": "C/C(=N/NC(N)=S)c1ccc(Nc2nc(SCC(C)C)nc(-c3ccc(F)cc3)c2C#N)cc1", "CLASS_NAME": "Criterion met"}
{"MOLECULE": "CCCC(=O)NC(c1ccc2c(c1)OC(F)(F)O2)c1cc(C)c2cccnc2c1O (centres undefined)", "CLASS_NAME": "Criterion met"}
{"MOLECULE": "CCCC(=O)NC(c1ccc(N(CC)CC)cc1)c1cc(C)c2cccnc2c1O (centres undefined)", "CLASS_NAME": "Criterion met"}
{"MOLECULE": "O=C1c2c(c3c4cc(Br)ccc4[nH]c3c3ccc4ccccc4c23)C(=O)N1CCO", "CLASS_NAME": "Criterion not met"}
{"MOLECULE": "COc1cccc(-c2nn(-c3ccccc3)cc2-c2ccnc(N3CCN(C(=O)Nc4ccc(F)cc4)CC3)c2)c1", "CLASS_NAME": "Criterion not met"}
{"MOLECULE": "O=C(CN1CCOCC1)NNc1ncnc2ccccc12", "CLASS_NAME": "Criterion not met"}
{"MOLECULE": "Cc1nc(-c2cc3ccccc3oc2=O)ccc1C(=O)/C=C/c1ccc(N2CCOCC2)cc1", "CLASS_NAME": "Criterion not met"}
{"MOLECULE": "Cc1sc2c(c1C)c(=O)nc1c(-c3nc(-c4ccc(F)cc4)no3)n[nH]n12", "CLASS_NAME": "Criterion not met"}
{"MOLECULE": "[Cl][Ru].c1ccc(-c2cc(-c3ccccn3)nc(-c3ccccn3)c2)cc1.c1ccc(-c2ccnc3c2ccc2c(-c4ccccc4)ccnc23)cc1", "CLASS_NAME": "Criterion met"}
{"MOLECULE": "Cc1ccc(C(=O)Nc2cccc(C(F)(F)F)c2)cc1Nc1nc(-c2cnccn2)nc2c1cnn2C", "CLASS_NAME": "Criterion not met"}
{"MOLECULE": "O=C1C2=C(C(=O)c3c(O)cccc31)C(c1ccco1)c1sc(=O)[nH]c1S2 (centres undefined)", "CLASS_NAME": "Criterion met"}
{"MOLECULE": "COc1cc(/C=C/C(=O)c2cc(OC)c(OC)c(OC)c2)ccc1Oc1nc(NCCO)nc(N2CCOCC2)n1", "CLASS_NAME": "Criterion met"}
{"MOLECULE": "COc1cc(/C=C/C(=O)c2cc(OC)c(OC)c(OC)c2)ccc1OCc1ccc(F)cc1", "CLASS_NAME": "Criterion met"}
{"MOLECULE": "C=CCn1c(SCC(=O)c2ccccc2)nnc1-c1c[nH]c2ccccc12", "CLASS_NAME": "Criterion not met"}
